Taken from patent US20260116958A1.

molecular target: inactive BoNT/G (BoNT/Gi) (Clostridium botulinum) (UniProt Q60393); experiment: titration on yeast-displayed scFv, flow cytometry, fit y = m1 + m2*M0/(m0+m3)
Sequence (Q60393 whole entry): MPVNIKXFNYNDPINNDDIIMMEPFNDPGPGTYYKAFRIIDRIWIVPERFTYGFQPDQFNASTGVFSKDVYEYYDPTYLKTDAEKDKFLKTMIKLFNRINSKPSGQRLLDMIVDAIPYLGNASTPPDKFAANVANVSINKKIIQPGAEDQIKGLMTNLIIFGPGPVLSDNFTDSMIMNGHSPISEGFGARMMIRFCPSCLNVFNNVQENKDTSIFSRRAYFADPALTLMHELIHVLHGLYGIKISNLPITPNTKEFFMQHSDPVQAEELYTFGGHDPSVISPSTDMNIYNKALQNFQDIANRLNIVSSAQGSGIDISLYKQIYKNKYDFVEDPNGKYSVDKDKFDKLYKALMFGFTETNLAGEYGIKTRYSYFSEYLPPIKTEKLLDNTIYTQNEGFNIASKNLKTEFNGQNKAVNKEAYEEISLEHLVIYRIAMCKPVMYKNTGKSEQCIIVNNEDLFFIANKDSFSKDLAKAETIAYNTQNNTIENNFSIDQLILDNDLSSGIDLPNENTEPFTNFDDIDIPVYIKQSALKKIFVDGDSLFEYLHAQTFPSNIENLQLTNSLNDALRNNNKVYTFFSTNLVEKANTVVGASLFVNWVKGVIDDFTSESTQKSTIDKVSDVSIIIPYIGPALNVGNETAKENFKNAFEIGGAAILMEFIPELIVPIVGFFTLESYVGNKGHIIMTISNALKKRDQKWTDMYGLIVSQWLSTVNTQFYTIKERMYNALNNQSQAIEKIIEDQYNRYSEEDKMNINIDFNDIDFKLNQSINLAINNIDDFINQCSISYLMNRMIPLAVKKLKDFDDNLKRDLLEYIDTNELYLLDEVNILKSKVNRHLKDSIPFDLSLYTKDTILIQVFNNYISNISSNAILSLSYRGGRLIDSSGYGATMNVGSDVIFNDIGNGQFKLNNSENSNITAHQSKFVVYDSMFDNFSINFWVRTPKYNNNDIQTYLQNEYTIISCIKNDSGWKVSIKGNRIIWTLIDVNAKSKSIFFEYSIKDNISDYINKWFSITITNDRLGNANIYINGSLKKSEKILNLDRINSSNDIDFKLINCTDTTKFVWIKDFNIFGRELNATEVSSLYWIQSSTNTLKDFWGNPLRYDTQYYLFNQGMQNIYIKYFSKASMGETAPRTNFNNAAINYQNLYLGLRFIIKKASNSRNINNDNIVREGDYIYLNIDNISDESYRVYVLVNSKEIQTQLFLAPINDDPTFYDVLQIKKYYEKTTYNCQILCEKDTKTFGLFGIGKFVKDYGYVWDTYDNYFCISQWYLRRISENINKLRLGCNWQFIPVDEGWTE
pKd: −log10 of the molar value.

{"Binder": "6G9A2 (scFv, V domains shown) VH: QVQLVQSGAEVKKPGASVKMSCKASGYTFTSYWMHWVRQAPGQGLEWIGYINPSTGYTEYNQKFKDRATLTADKSTSTAYMELRSLRSDDTAVYYCARGGNYVDYWGQGTTLTVSS VL: DVVMTQSPSFLSASVGDRVTVTCRASQSIGSWLAWYQQKPGKAPKLLIYAASSLQSGVPSRFSASGSGTDFTLTISSLQPDDFATYFCHRLNSYPLTFGGGTKVEIK", "pKd": 8.21}
{"Binder": "hu6G7.1D6 (scFv, V domains shown) VH: QVQPVQSGAEVKKPGASVKVSCKASDYSFTDYNIYWVRQAPGQGLEWIGYIDPYNGGTSYNQKYRGRATLTVDKSINTAYMELSRLRSDDTAVYYCALYGYDPDYIEYWGQGTTLTVSS VL: DIVLTQSPASMAASPGQRVTITCSASSSVSYLHWFQQKPGQSPKLWIYSTSNLASGVPARFSGSGSGTDYTLTINPMEAEDTATYYCQQRSSYPYTFGQGTKLEIK", "pKd": 8.30}
{"Binder": "6G9B9 (scFv, V domains shown) VH: QVQLVQSGAEVKKPGASVKMSCKASGYTFTSYWMHWVRQAPGQGLEWIGYINPSTGYTEYNQKFKDRATLTADKSTSTAYMELRSLRSDDTAVYYCARGGNYVDYWGQGTTLTVSS VL: DIQMTQSPSTLSASVGERVTITCRASQGISSWLAWYQQKPGKAPKRLIYAVSTLQTGVPSRFSGSGSGTDLTLTINSLQPEDFATYYCQHLNSYPLTFGGGTKVEIK", "pKd": 8.42}
{"Binder": "hu6G7.1A5 (scFv, V domains shown) VH: QVQLVQSGAEVKKPGASVKVSCKASDYSFTDYNIYWVRQAPGQGLEWIGYIDPYNGGTSYNQKFKGRATLTVDKSISTAYMELSRLRSDDTAVYYCALYGYDPDYIDYWGPGTTLTVSS VL: DIVLTQSPASMAASPGQRVTITCSASSSVSYLHWFQQKPGQSPKLMIYGTSNLASGVPVRFSGSGSGTSYSLTINPMEAEDTATYYCQQRSSYPYTFGQGTKLEIK", "pKd": 8.31}
